src = PubChem BioAssay (NCI)

# growth per record follows
# Tested on: DU-145 prostate
# Run description: NCI-60 one-dose screen, 48 h (100 = growth as untreated, 0 = no growth, -100 = all killed)
# Measurement conditions: 10 µM
This is part of a sample that, as a whole, favours compounds with a hit. Of some 83,000 tested, about 20% had one in any assay.
Unit % implied. Number only.

Which value of growth has been reported for `O=C(N/N=C\c1cc(Cl)ccc1O)c1ccncc1` in the records? 48.3

More entries:
For `COc1cc(CSc2nc3ccc(C)cc3c(=O)n2-c2ccccc2)cc(OC)c1OC` , what is its reported growth? 29.8

Next compound: `CCOC(=O)c1c(C)n(-c2ccc(Cl)cc2)c2ccc(OC(=O)/C=C/c3ccccc3)cc12` 91

Try COc1ccc(C(C)=O)cc1N1C(=O)C2C(C1=O)C1(c3ccccc3)C(=O)C2(c2ccccc2)C(c2ccc(C)cc2)=C1c1ccc(C)cc1 (configuration not stated) next. 19.1

Also check `COc1ccc(-c2n/c(=C\c3c(O)[nH]c4ccccc34)cc3c2=Nc2ccccc2-3)cc1` 19.1

What do you have for `c1ccc(C2CCCCC2)c(OCCCCCN2CCNCC2)c1` ? 72.8

----------
Below, each entry is listed with its recorded growth.
# Test system: M14 melanoma
# Run description: NCI-60 one-dose screen, 48 h (100 = growth as untreated, 0 = no growth, -100 = all killed)
# Measurement conditions: 10 µM
Compounds without any hit were thinned out: in the full panel of roughly 83,000, 20% have a hit. Activity calls are given as the source filed them. The calls were made as follows: active = growth percent below 10; inactive = the rest.

Here's what some known entries look like.
Any idea what its growth is? The compound is Nc1nc2c(ncn2C2OC3COP(=O)(O)OC4C(COP(=O)(O)OC2C3O)OC(n2cnc3c(N)ncnc32)C4O)c(=O)[nH]1 (stereo unspecified) 106% (inactive)

Try COc1ccc(C2C=C(c3ccc(Cl)c(Cl)c3)N=C3SC(C)=CN32)cc1 (stereo unspecified) next. 97.3% (inactive)

One more compound: `COc1ccc(COC(=O)CC(C)C)cc1` 99.6% (inactive)

Next record, please: `CCSc1nc2c([nH]1)c(=O)n(C)c(=S)n2C` 109% (inactive)

Lookup `COc1ccc(CCc2nc3cc(-c4c(C)noc4C)ccc3n2CCN2CCOCC2)cc1` 20.6% (inactive)

Further cases:
Quick one: growth for `Cn1c(N)c(N=Cc2ccccc2)c(=O)n(C)c1=O` ? 98.7% (inactive)

Next entry: `O=C(O)CCCN1C(=O)NC2(C1=O)c1ccccc1-c1ccccc12` 103% (inactive)

Cool, now `N=C(N)c1ccc(-c2ccc(-c3ccccc3)s2)cc1F` -93.1% (active)

What do you have for `C#CCNCCN1C(=O)c2ccc3c4c(ccc(c24)C1=O)C(=O)N(CCNCC#C)C3=O` ? 32.6% (inactive)

What do you get for `COc1ccc(/C(CS(=O)(=O)c2ccccc2)=N\O)cc1` ? 109% (inactive)

And then `Cc1cccc2c(Nc3ccc(NS(C)(=O)=O)cc3)c3ccc([N+](=O)[O-])cc3nc12` , what is it? 16.7% (inactive)

----------
# System: HCC-2998 colon
# Run description: NCI-60 one-dose screen, 48 h (100 = growth as untreated, 0 = no growth, -100 = all killed)
# Measurement conditions: 10 µM
About 83,000 compounds went through this panel and 20% of them were active in at least one assay; those are over-represented in the sample as a whole.
Recorded endpoint: growth (%)
Supply the numeric figure in %, leaving out any unit text.

Study these solved cases before continuing.
Record request: growth value, item C[N+]1(CC2CO2)CCCCCC1 (stereo not given) 112

Also, `O=C(N/N=c1/ccoc2cccnc12)N1CCN(c2ncccn2)CC1` please. 26.1

Moving on to the next molecule: `Oc1ccc(Cn2cc3c(c2-c2ccccc2)CCc2cnoc2-3)cc1` 102

// repeat for CCN(CC)CC(O)CNc1ccnc2cc(Cl)c(Cl)cc12 (stereo not given) and report 102

Now consider `Cc1ncc([N+](=O)[O-])n1CCOc1ccc(C(=O)/C=C/c2ccc(C(F)(F)F)cc2)cc1` . 95.9

`COc1cccc(C(=O)NNc2nc(N3CCN(C4CCCCC4)CC3)nc(N3CCN(C(c4ccccc4)c4ccccc4)CC3)n2)c1` ? 42

Next:
// growth lookup, key: COc1cc(C(c2c[nH]c3ccccc23)N2CCCC2)ccc1OCc1ccccc1 (stereo not given) 96.2

What do we get for `O=C(NNc1nc(N2CCCC2)nc(N2CCCC2)n1)c1ccccc1` ? 106

Try this molecule too: `CCOC(=O)[C@@H](Cc1ccccc1)NC(=O)c1[nH]c2ccc(Cl)cc2c(=O)c1C` 87.6

Also need `CNC(=O)c1cc(Oc2ccc(NC(=O)Nc3ccc(Cl)c(C(C)(C)C)c3)c(F)c2)ccn1` , thanks. 44.2
